System under test: BRG1 (Homo sapiens)
Construct: either BRM primary antibody (Cell signaling Cat #11966) or BRG primary antibody (Abcam, ab 110641); endogenous in cells; host or cells: SW1573
Sequence (P51532 whole entry): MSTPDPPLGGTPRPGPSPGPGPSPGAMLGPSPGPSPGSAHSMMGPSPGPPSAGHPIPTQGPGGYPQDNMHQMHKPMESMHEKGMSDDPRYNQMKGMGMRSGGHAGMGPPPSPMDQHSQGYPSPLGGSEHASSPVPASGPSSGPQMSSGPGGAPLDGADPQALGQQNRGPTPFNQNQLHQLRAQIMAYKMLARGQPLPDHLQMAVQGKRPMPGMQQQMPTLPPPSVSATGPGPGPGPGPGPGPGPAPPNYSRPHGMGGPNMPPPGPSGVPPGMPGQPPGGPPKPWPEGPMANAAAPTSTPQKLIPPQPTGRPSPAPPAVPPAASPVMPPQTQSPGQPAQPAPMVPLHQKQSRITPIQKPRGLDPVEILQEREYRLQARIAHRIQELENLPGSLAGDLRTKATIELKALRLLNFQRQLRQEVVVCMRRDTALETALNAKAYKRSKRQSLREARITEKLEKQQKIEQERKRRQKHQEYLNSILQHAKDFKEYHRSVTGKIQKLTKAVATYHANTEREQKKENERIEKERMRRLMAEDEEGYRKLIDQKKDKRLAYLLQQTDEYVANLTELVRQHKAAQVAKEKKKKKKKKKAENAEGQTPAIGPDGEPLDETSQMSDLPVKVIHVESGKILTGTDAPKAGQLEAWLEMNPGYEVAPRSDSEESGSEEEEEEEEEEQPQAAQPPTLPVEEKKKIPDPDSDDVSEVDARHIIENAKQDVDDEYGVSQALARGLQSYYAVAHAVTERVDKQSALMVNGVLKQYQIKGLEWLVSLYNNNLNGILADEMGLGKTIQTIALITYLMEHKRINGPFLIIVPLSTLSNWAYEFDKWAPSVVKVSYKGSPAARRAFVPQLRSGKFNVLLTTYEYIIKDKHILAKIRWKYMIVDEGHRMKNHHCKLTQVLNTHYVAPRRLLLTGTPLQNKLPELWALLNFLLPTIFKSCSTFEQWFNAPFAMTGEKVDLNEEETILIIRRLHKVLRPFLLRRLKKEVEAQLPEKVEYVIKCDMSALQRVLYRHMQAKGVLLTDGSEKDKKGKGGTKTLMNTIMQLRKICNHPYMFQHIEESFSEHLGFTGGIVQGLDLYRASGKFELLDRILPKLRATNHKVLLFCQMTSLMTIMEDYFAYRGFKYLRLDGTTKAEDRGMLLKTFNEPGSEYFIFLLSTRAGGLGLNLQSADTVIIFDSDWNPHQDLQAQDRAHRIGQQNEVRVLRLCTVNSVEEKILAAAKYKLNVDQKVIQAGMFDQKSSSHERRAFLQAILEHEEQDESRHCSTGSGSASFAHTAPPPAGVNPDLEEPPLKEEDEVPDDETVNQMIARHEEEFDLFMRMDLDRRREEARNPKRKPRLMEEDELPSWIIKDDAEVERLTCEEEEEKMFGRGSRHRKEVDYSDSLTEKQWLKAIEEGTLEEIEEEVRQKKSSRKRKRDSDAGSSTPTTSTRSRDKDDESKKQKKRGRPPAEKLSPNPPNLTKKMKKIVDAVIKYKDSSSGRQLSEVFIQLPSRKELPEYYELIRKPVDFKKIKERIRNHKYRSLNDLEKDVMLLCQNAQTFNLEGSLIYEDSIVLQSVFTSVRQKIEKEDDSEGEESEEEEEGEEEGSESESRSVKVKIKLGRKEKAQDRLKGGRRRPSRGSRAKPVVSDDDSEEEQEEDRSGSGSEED
Assay notes: Immunofluorescence assay for BRG1 degradation in SW1573 cells
Type: cell-based
Condition description: 20 hours incubation, immunofluorescence mean nuclear signal, read-out: BRG1 IF Degradation IC50
Listing of entries alongside the reported DC50.
Readout type: DC50

Compound	Result
Nc1nnc(-c2ccccc2O)cc1N1CC2CCC(C1)N2c1ccnc(C#CC2CCNCC2)c1	> 100 nM
Nc1nnc(-c2ccccc2O)cc1N1CC2CCC(C1)N2c1ccnc(C#CCN2CC(C3CC3)C2)c1	< 10 nM
Nc1nnc(-c2ccccc2O)cc1N1CC2CCC(C1)N2c1ccnc(C#CCN2CCCOCC2)c1	< 10 nM
CC1CN(CC#Cc2cc(N3C4CCC3CN(c3cc(-c5ccccc5O)nnc3N)C4)ccn2)CCCO1 (stereo not drawn)	10 to 100 nM
COCC1(O)CCCN(CC#Cc2cc(N3C4CCC3CN(c3cc(-c5ccccc5O)nnc3N)C4)ccn2)CC1 (stereo not drawn)	> 100 nM
Nc1nnc(-c2ccccc2O)cc1N1CC2CCC(C1)N2c1ccnc(C#CCN2CCC3CCCC32)c1 (stereo not drawn)	< 10 nM
Nc1nnc(-c2ccccc2O)cc1N1CC2CCC(C1)N2c1ccnc(C#CCN2CCC3CC[C@@H](O)C32)c1 (stereo partly drawn)	> 100 nM
Nc1nnc(-c2ccccc2O)cc1N1CC2CCC(C1)N2c1ccnc(C#CCN2CC3CC2C3)c1	< 10 nM
Nc1nnc(-c2ccccc2O)cc1N1CC2CCC(C1)N2c1ccnc(C#CCN2CCC3(CC2)CC3)c1	< 10 nM
Nc1nnc(-c2ccccc2O)cc1N1CC2CCC(C1)N2c1ccnc(C#CCN2CCOC3CCNCC32)c1 (stereo not drawn)	> 100 nM
CN(CC#Cc1cc(N2C3CCC2CN(c2cc(-c4ccccc4O)nnc2N)C3)ccn1)CC(=O)N1CCOCC1	> 100 nM
Nc1nnc(-c2ccccc2O)cc1N1CC2CCC(C1)N2c1ccnc(C#CCN2CCC3(CCCO3)C2)c1 (stereo not drawn)	10 to 100 nM
Nc1nnc(-c2ccccc2O)cc1N1CC2CCC(C1)N2c1ccnc(C#CCN2C[C@@H]3C[C@H]2[C@H]2C[C@@H]32)c1	< 10 nM
Nc1nnc(-c2ccccc2O)cc1N1CCC2(CCN(c3ccnc(C#CCN4CCCCCC4)c3)CC2)CC1	> 100 nM
Nc1nnc(-c2ccccc2O)cc1N1CC2CCC(C1)N2c1ccnc(C#CCN2CC(F)C2)c1	< 10 nM
